Assay: Ratio of free drug concentration in mouse brain to EC90 for modulation of gamma secretase in human H4 cells expressing human wild type APP751 assessed as reduction in amyloid beta42 level incubated overnight by ELISA
Assay type: ADME, cell-based
Readout kind: Ratio

Consider the worked cases shown below.
COc1nc(C2=NOCC(c3ccc(C(F)(F)F)cc3)N2)ccc1-n1cnc(C)c1 (stereo unspecified) = 1.1
COc1nc(C2=NOCC(c3ccc(Cl)c(F)c3)N2)ccc1-n1cnc(C)c1 (stereo unspecified) = 1.7
COc1nc(C2=NOCC(c3ccc(F)c(Cl)c3)N2)ccc1-n1cnc(C)c1 (stereo unspecified) = 1.5
COc1nc(C2=NOC(C)C(c3ccc(Cl)c(F)c3)N2)ccc1-n1cnc(C)c1 (stereo unspecified) = 2.6

(a) COc1nc(C2=NOCC(c3ccc(Cl)c(C)c3)N2)ccc1-n1cnc(C)c1 (stereo unspecified)
(b) COc1nc(C2=NOC(C)C(c3ccc(Cl)cc3)N2)ccc1-n1cnc(C)c1 (stereo unspecified)
Ask: Between the entries labeled a and b , whose measured Ratio is lower? Return value: the label identifying the chosen record.
Reply: a
(a: 1.3, b: 4.5)

(P) COc1nc(C2=NOC[C@H](c3cc4ccccc4o3)N2)ccc1-n1cnc(C)c1
(Q) COc1nc(C2=NOCC(c3ccc(Cl)c(Cl)c3)N2)ccc1-n1cnc(C)c1 (stereo unspecified)
Ask: Between the entries labeled P and Q , whose measured Ratio is lower? Return value: the label identifying the chosen record.
Reply: Q
